- method description: Therapeutic index was determined; Value is >78049 but < 390244
- experimental setup: read-out: TI
property label: selectivity ratio

// query selectivity ratio value for entry CC1(C)Oc2ccc3ccc(=O)oc3c2[C@@H](OC(=O)C23CCC(C)(C(=O)O2)C3(C)C)[C@H]1OC(=O)C12CCC(C)(C(=O)O1)C2(C)C (stereo partly specified)
< 390000

----------
- Test system: H9
- method description: Compound was tested for inhibitory activity against HIV-1 replication in H9 lymphocyte cells
- Type: functional, cell-based
- experimental setup: Homo sapiens
pIC50: −log10 of the molar value.
pIC50 values, listed per item

Examples from the recorded data:
What reported pIC50 corresponds to CC(=O)O[C@@H]1[C@H](OC(=O)CC(C)C)c2c(ccc3ccc(=O)oc23)OC1(C)C on H9?
< 4.28

What reported pIC50 corresponds to CC1(C)Oc2ccc3ccc(=O)oc3c2[C@@H](OC(=O)C23CCC(C)(C(=O)O2)C3(C)C)[C@@H]1OC(=O)C12CCC(C)(C(=O)O1)C2(C)C (stereo partly drawn) on H9?
< 4.49

Please examine the following record next.
What reported pIC50 corresponds to CC1(C)Oc2ccc3ccc(=O)oc3c2[C@H](OC(=O)C23CCC(C)(C(=O)O2)C3(C)C)[C@@H]1OC(=O)C12CCC(C)(C(=O)O1)C2(C)C (stereo partly drawn) on H9?
2.77

----------
- method description: Therapeutic index was determined; Value is >3,125 but < 15,625
- experimental setup: read-out: TI
property label: selectivity ratio

// query selectivity ratio value for entry CC1(C)Oc2ccc3ccc(=O)oc3c2[C@@H](OC(=O)C23CCC(C)(C(=O)O2)C3(C)C)[C@H]1OC(=O)C12CCC(C)(C(=O)O1)C2(C)C (stereo partly specified)
> 3120

----------
selectivity ratio values, listed per item
- method description: Therapeutic index was determined
- experimental setup: read-out: TI

Examples from the recorded data:
// query selectivity ratio value for entry CC1(C)Oc2ccc3ccc(=O)oc3c2[C@H](OC(=O)C23CCC(C)(C(=O)O2)C3(C)C)[C@H]1OC(=O)C12CCC(C)(C(=O)O1)C2(C)C (some centres undefined)
> 1

// query selectivity ratio value for entry CC1(C)Oc2ccc3ccc(=O)oc3c2[C@H](OC(=O)C23CCC(C)(C(=O)O2)C3(C)C)[C@@H]1OC(=O)C12CCC(C)(C(=O)O1)C2(C)C (some centres undefined)
> 33.3

// query selectivity ratio value for entry CC(=O)O[C@@H]1[C@H](OC(=O)CC(C)C)c2c(ccc3ccc(=O)oc23)OC1(C)C
> 40

Please examine the following record next.
// query selectivity ratio value for entry CC1(C)Oc2ccc3ccc(=O)oc3c2[C@@H](OC(=O)C23CCC(C)(C(=O)O2)C3(C)C)[C@@H]1OC(=O)C12CCC(C)(C(=O)O1)C2(C)C (some centres undefined)
> 1

----------
- System: H9
- method description: Effective concentration against HIV-1 replication in H9 lymphocyte cells was determined; Activity >6.4 but < 32
- Format: functional, cell-based
- experimental setup: Homo sapiens
pEC50: −log10 of the molar value.
property label: pEC50

What reported pEC50 corresponds to CC1(C)Oc2ccc3ccc(=O)oc3c2[C@H](OC(=O)C23CCC(C)(C(=O)O2)C3(C)C)[C@H]1OC(=O)C12CCC(C)(C(=O)O1)C2(C)C (stereo partly specified) on H9?
> 4.49

----------
- method description: Therapeutic index was determined; Value is >222 but < 1,111
- experimental setup: read-out: TI
property label: selectivity ratio

// query selectivity ratio value for entry CC1(C)Oc2ccc3ccc(=O)oc3c2[C@@H](OC(=O)C23CCC(C)(C(=O)O2)C3(C)C)[C@H]1OC(=O)C12CCC(C)(C(=O)O1)C2(C)C (stereo partly specified)
> 222
